Just for reference, ChEMBL document CHEMBL1127179 is where these values come from.

# Target Entity: Serotonin 3 (5-HT3) receptor (Homo sapiens) (UniProt P46098+A5X5Y0+O95264+Q70Z44+Q8WXA8)
# Test Description: Tested for 5-hydroxytryptamine 3 receptor antagonist activity by inhibiting the 5-HT evoked Bezold-Jarisch reflex
# Format: functional
Attribute Measured: -Log ED50

> print(dat)
                     smiles.structure  recorded.value
1   COc1ccc(Cl)cc1NC(=O)NCCc1c[nH]cn1             6.8
2    COc1ccc(F)cc1NC(=O)NCCc1c[nH]cn1             7.4
3       COc1ccccc1NC(=O)NCCc1c[nH]cn1               7
4    COc1cc(F)ccc1NC(=O)NCCc1c[nH]cn1               7
5      CCOc1ccccc1NC(=O)NCCc1c[nH]cn1             7.2
6              NCCc1c[nH]c2ccc(O)cc12             7.4
7  Cn1nc(C(=O)NCCc2c[nH]cn2)c2ccccc21             6.9
